The reported measurements were obtained from a protein production outcome set (Wang et al. 2014).

Experiment: label from the status in PepcDB records
measuredProperty: protein production

[[record]]
residuecodes = "MGNVGLLFVGAVLFMNGLLLLGKVDAKAAAVFNLFIGALQVLTPTYLIFTANGDPMKILAASGIYLFGFTYLYVGIGLLTGLDSTGVGYYSLFVAVAALGYSFVNFRLFKDYPFGVIWLYWAYLWFLFFLLLGLKKDDLKIYTGWVTAIEGWVTGAIPAGLLLSGYWKHPTETAIALAVFGVVVFVGLWPRTHRTPRPTSAAPRTGGVGAPT"
measuredproperty = "protein production"
assayresult = "failed"

[[record]]
residuecodes = "MTALLTRVWACTLCQAELPFPPKPILQASSQARILIAGQAPGVKTHHKGIPFDDASGERLRAWLNVSREQFYDPALFAIVPMGFCFPGNIERKGKKQGDKPPRPECAATWHKALLALMPNIELVIVLGQYAMDYHLSRLLMDNMHKNRGFNSTPLAAAHTIGKATSNKKITLTQAVEQWPLYWPQLMVMPHPSPRNNLWLKQHPEFEQHLIPTLRSRISSLLT"
measuredproperty = "protein production"
assayresult = "failed"

[[record]]
residuecodes = "VWEFYMPTDVFFGEKILEKRGNIIDLLGKRALVVTGKSSSKKNGSLDDLKKLLDETEISYEIFDEVEENPSFDNVMKAVERYRNDSFDFVVGLGGGSPMDFAKAVAVLLKEKDLSVEDLYDREKVKHWLPVVEIPTTAGTGSEVTPYSILTDPEGNKRGCTLMFPVYAFLDPRYTYSMSDELTLSTGVDALSHAVEGYLSRKSTPPSDALAIEAMKIIHRNLPKAIEGNREARKKMFVASCLAGMVIAQTGTTLAHALGYPLTTEKGIKHGKATGMVLPFVMEVMKEEIPEKVDTVNHIFGGSLLKFLKELGLYEKVAVSSEELEKWVEKGSRAKHLKNTPGTFTPEKIRNIYREALGV"
measuredproperty = "protein production"
assayresult = "not failed"

[[record]]
residuecodes = "MPAPRYKSGSSKKVYRKAPGNSSIVHYRRKKQSKAVCGACGALLNGVPRGRAVEITKLAKTEKRPERPFGGNLCPKCVKKMMVAKARNFLEHHHHHH"
measuredproperty = "protein production"
assayresult = "not failed"

[[record]]
residuecodes = "MVCDKCEKKLSKVIVPDKWKDGARNVTEGGGRKINENKLLSKKNRWSPYSTCTTKCMICKQQVHQDGKYCHTCAYSKGVCAMCGKQVLDTKMYKQSNV"
measuredproperty = "protein production"
assayresult = "failed"

[[record]]
residuecodes = "MVIETGVWIVLLGATVTAVATGLGALPFLFVRDIGDWWLGVFNAAAGGLMLAASHSLITEGSMLSTGRTLIGILVGLALILGANTFISRGDDHDVAELAGADARKALLILGIMTAHSFAEGVGVGVSYGGGDELGAFITAAIAVHNIPEGLAISLVLVPRGTPLWKAAGWSIFTSLPQPLMAVPAFLFVLVFEPFLPIGFGLAAGAMIWMVFAELIPDALEDVPGPTAGAAVTLAFAALFAFQHFVLHV"
measuredproperty = "protein production"
assayresult = "failed"

[[record]]
residuecodes = "MSLINEATLAESIRRLRQGERATLAQAMTLVESRHPRHQALSTQLLDAIMPYCGNTLRLGVTGTPGAGKSTFLEAFGMLLIREGLKVAVIAVDPSSPVTGGSILGDKTRMNDLARAEAAFIRPVPSSGHLGGASQRARELMLLCEAAGYDVVIVETVGVGQSETEVARMVDCFISLQIAGGGDDLQGIKKGLMEVADLIVINKDDGDNHTNVAIARHMYESALHILRRKYDEWQPRVLTCSALEKRGIDEIWHAIIDFKTALTASGRLQQVRQQQSVEWLRKQTEEEVLNHLFANEDFDRYYRQTLLAVKNNTLSPRTGLRQLSEFIQTQYFDEGHHHHHH"
measuredproperty = "protein production"
assayresult = "not failed"

[[record]]
residuecodes = "MGCYHPLSGTDGTLMRHTLPIAPQFYVTAPQPCPYLAGRMERKLFTALQGEGAERLNNALSQQGFRRSQNVLYRPSCADCAACLSARIDVSAFRASRSQKRAMRRNAHLTRRATSPWATDEQYELFRRYLDSRHADGGMADMDVFEFAAMIEETPIRSRVIEYAHRDTRALIGVSLTDVLDDGLSMVYSFYDPDLHRDSLGTHMILDHIAIAREAGLPYVYLGYWVPGSPKMGYKSRFSGLEIYLGGRWQAMTDPEAHDAIRHPLSTDPIAEQVANIQLPDRWPTGD"
measuredproperty = "protein production"
assayresult = "failed"

[[record]]
residuecodes = "MNYILHLSILLVVAKLLEWLFEKKDIHPIIAHILTGIILGPFLLGIIYPNEELKVLSEFGLIMMMLYMGLTSNFSAIAQNKVKAIVVASLGVAFSFILGFTTVYLFGKGISAALFVGITLGNTAIEVTSGVIMKERIKREISSVLMGAAFADDIIAVYLIGILTGMIKGQTSLLSLAILTIKIVAFILSVLIFSEFVFKKSSLIYNLVIKDLNVFFTFTIILTFSLAVIAEGIGLNRIIGAYLAGLTISRLRERKDPLIISRIKLNELINELQVVLTEFFIPLFFIYVGLMFDPDTSEINLLLIALLYASAILGKLIGCGLGVKVFKGSWKDAVIVGIGMGGRGSLDLALLKFGLESGMIGEDLFATTVIVSMLTALSTPIFFRKTVKKLSEE"
measuredproperty = "protein production"
assayresult = "failed"

[[record]]
residuecodes = "MEVKKVLVSAFLLTTCLMSGQAQRRNEIQVPDLDGYTTLKCDFHMHSVFSDGLVWPTVRVDEAYRDGLDAISLTEHIEYRPHKQDVVSDHNRSFDLCREQAEKLGILLIKGSEITRAMAPGHFNAIFLSDSNPLEQKDYKDAFREAKKQGAFMFWNHPGWDSQQPDTTKWWPEHTALYQEGCMHGIEVANGHLYMPEAIQWCLDKNLTMIGTSDIHQPIQTDYDFEKGEHRTMTFVFAKERSLQGIREALDNRRTAAYFHELLIGREDLLRPFFEKCVKIEEVSRNEQGVTLSITNVTDLVLKLKKTAHDTLLVYFRDMTLKPHTRYTVRIGFKQGIKGGDVNFEVTNFIVAPDKGLKYTISL"
measuredproperty = "protein production"
assayresult = "failed"

[[record]]
residuecodes = "MTREIIPILPEAPVETARSGNALPLLREIAEHLHHLLETGEASTIDLSALPLTPGDLEWLRAELGGGEVSVTLHADGASTLDETAFPGVWWIIHRNAQGAVTTQFIEVAFVPELVKSPRADVAAARAALVLRMADL"
measuredproperty = "protein production"
assayresult = "not failed"

